target: SRC (Homo sapiens); experiment: Inhibition of a panel of kinases, in vitro HotSpot kinase assay: SRC; format: biochemical; details: Table 13, A compounds; 1 μM ATP
Sequence (P12931 whole entry): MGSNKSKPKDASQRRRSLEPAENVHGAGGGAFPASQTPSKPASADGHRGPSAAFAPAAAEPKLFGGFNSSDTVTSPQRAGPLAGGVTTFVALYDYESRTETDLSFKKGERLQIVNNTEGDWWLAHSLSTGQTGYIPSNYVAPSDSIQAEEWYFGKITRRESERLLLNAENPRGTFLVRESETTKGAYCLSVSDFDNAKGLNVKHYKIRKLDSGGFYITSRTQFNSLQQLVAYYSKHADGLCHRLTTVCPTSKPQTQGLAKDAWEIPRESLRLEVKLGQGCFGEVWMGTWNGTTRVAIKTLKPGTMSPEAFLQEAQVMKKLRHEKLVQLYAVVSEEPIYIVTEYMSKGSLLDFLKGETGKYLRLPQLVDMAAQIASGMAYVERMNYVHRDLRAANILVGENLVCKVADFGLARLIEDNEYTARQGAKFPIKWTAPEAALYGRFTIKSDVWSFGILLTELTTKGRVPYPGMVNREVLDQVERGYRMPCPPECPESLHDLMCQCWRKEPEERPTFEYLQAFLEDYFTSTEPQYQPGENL
pIC50: −log10 of the molar value.
Recorded measurements of pIC50, one per entry

In [3]: df
Out[3]:
                               query_smiles  result
0  Cn1cc(Nc2nc(N3C[C@@H](NC(=O)c4ccc(C5CC5)cc4)CC(F)(F)C3)cnc2C(N)=O)cn1  < 5.00

Q) Item under review: COCCN(C)Cc1cc(Nc2nc(N3CCC[C@@H](NC(=O)c4ccc(C5CC5)cc4)[C@H]3C)cnc2C(N)=O)sn1 . Reported pIC50?
A) 7.00 to 8.00

Q) Item under review: C[C@@H]1[C@H](NC(=O)c2ccc(C3CC3)cc2)CCCN1c1cnc(C(N)=O)c(Nc2cc(CN3CCCCC3)ns2)n1 . Reported pIC50?
A) 7.00 to 8.00

Q) Item under review: C[C@@H]1[C@H](NC(=O)c2ccc(C3CC3)cc2Cl)CCCN1c1cnc(C(N)=O)c(Nc2ccc(N3CCN(C)CC3)cc2)n1 . Reported pIC50?
A) 6.00 to 7.00

Q) Item under review: Cc1cc(Nc2nc(N3CCC[C@@H](n4ccc5cc(C6CC6)ccc5c4=O)C3)cnc2C(N)=O)sn1 . Reported pIC50?
A) < 5.00

Q) Item under review: C[C@@H]1[C@H](NC(=O)c2ccc(C3CC3)cc2F)CCCN1c1cnc(C(N)=O)c(Nc2cnn(C)c2)n1 . Reported pIC50?
A) 6.00 to 7.00

Q) Item under review: C[C@@H]1[C@H](NC(=O)N(C)C)CCCN1c1cnc(C(N)=O)c(Nc2ccc(C(=O)N3CCN(C)CC3)cc2)n1 . Reported pIC50?
A) 6.00 to 7.00

----------
molecular target: ITK (Homo sapiens, UniProt Q08881); assay: Inhibition of a panel of kinases, in vitro HotSpot kinase assay: ITK; assay type: biochemical; conditions: D-compounds panel data; 1 μM ATP
Sequence (Q08881 whole entry): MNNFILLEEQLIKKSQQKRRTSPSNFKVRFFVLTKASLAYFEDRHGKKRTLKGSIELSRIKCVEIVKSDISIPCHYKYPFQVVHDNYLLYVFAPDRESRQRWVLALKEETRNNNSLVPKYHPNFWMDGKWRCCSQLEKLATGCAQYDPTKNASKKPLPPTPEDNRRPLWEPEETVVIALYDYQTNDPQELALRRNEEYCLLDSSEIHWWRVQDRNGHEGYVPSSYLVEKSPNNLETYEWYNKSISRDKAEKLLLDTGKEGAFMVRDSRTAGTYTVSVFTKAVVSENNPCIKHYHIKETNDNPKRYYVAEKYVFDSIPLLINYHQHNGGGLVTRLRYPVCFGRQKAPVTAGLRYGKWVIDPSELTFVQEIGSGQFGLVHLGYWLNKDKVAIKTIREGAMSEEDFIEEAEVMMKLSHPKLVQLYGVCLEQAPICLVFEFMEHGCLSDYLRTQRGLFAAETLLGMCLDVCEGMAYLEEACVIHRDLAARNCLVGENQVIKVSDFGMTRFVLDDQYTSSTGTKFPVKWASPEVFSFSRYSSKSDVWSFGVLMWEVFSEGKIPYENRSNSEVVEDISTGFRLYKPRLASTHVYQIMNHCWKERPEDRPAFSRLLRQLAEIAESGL
pIC50: −log10 of the molar value.
measured quantity: pIC50

Example cases with answers are listed next.
>>> print(df.to_string())
                               query_smiles  measured_quantity        result
0  Cc1ccc(-c2cnc([C@@H]3CCCN(c4cnc(C(N)=O)c(Nc5cc(C)ns5)n4)[C@@H]3C)[nH]2)cc1              pIC50  5.00 to 6.00
1  COCCN(C)Cc1cc(Nc2nc(N3CCC[C@@H](NC(=O)c4ccc(C5CC5)cc4)[C@H]3C)cnc2C(N)=O)sn1              pIC50  6.00 to 7.00
2  C[C@@H]1[C@H](NC(=O)c2ccc(C3CC3)cn2)CCCN1c1cnc(C(N)=O)c(Nc2ccc(OC3CCN(C)CC3)cc2)n1              pIC50  7.00 to 8.00
3  C[C@@H]1[C@H](n2ccc3cc(C4CC4)ccc3c2=O)CCCN1c1cnc(C(N)=O)c(Nc2ccc(N3CCN(C)CC3)cc2)n1              pIC50  6.00 to 7.00

Field: next compound
Q) Item under review: CC(C)n1nnc2cc(C(=O)N[C@@H]3CCCN(c4cnc(C(N)=O)c(Nc5cnn(C)c5)n4)[C@@H]3C)ccc21 . Reported pIC50?
A) 6.00 to 7.00

----------
target: ITK (Homo sapiens); assay: Inhibition of a panel of kinases, in vitro HotSpot kinase assay: ITK; format: biochemical; conditions: D-compounds panel data; 1 μM ATP
measured quantity: IC50

Example cases with answers are listed next.
molecule	study target	measured quantity	result
C[C@@H]1[C@H](NC(=O)c2ccc(C3CC3)cc2F)CCCN1c1cnc(C(N)=O)c(Nc2ccc(N3CCN(C)C[C@@H]3C)cc2)n1 [Example D-12]	ITK (Homo sapiens)	IC50	0.1 to 1 µM
Cc1cc(Nc2nc(N3C[C@@H](NC(=O)c4ccc(C5CC5)cc4F)CC[C@H]3C)cnc2C(N)=O)sn1 [Example D-80]	ITK (Homo sapiens)	IC50	> 10 µM
C[C@@H]1[C@H](NC(=O)c2ccc(C3CC3)cc2F)CCCN1c1cnc(C(N)=O)c(Nc2ccn(C)n2)n1 [Example D-129]	ITK (Homo sapiens)	IC50	> 10 µM

Q) Item under review: Cc1cc(Nc2nc(N3C[C@H](NC(=O)c4ccc(C5CC5)cc4F)CC[C@H]3C)cnc2C(N)=O)sn1 [Example D-79] . Reported IC50?
A) > 10 µM

Q) Item under review: C[C@@H]1[C@H](NC(=O)c2ccc(C(C)(C)O)cc2)CCCN1c1cnc(C(N)=O)c(Nc2cnn(C)c2)n1 [Example D-194] . Reported IC50?
A) 0.1 to 1 µM

Q) Item under review: C[C@@H]1[C@H](NC(=O)c2ccc(C3CC3)cc2C(F)(F)F)CCCN1c1cnc(C(N)=O)c(Nc2cnn(C)c2)n1 [Example D-25] . Reported IC50?
A) 1 to 10 µM

Q) Item under review: C[C@@H]1[C@H](NC(=O)c2ccc(N(C)C)cn2)CCCN1c1cnc(C(N)=O)c(Nc2cnn(C)c2)n1 [Example D-84] . Reported IC50?
A) 0.1 to 1 µM

Q) Item under review: C[C@@H]1[C@H](NC(=O)c2ccc3cnn(C)c3c2)CCCN1c1cnc(C(N)=O)c(Nc2cnn(C)c2)n1 [Example D-259] . Reported IC50?
A) 0.1 to 1 µM

Q) Item under review: C[C@@H]1[C@H](NC(=O)c2ccc(C3CC3)cc2)CCCN1c1cnc(C(N)=O)c(Nc2ccc(OC3C[C@H]4CC[C@@H](C3)N4C)cc2)n1 (stereo partly drawn) [Example D-104] . Reported IC50?
A) 0.01 to 0.1 µM

----------
Recorded measurements of pIC50, one per entry
target: BTK-WT (Homo sapiens, UniProt Q06187); construct: purified from insect cells as a full-length construct containing an N-terminal 6X-His tag; His6 (N); made in house; host or cells: insect cells (baculovirus Sf21 in Method B); assay: Btk in vitro inhibitory activity (one of Method A TR-FRET, Method B electrophoretic mobility shift, Method C radiometric filter binding); type: biochemical; settings: D-compounds panel data; read-out: IC50 BTK-WT
Sequence (Q06187 whole entry): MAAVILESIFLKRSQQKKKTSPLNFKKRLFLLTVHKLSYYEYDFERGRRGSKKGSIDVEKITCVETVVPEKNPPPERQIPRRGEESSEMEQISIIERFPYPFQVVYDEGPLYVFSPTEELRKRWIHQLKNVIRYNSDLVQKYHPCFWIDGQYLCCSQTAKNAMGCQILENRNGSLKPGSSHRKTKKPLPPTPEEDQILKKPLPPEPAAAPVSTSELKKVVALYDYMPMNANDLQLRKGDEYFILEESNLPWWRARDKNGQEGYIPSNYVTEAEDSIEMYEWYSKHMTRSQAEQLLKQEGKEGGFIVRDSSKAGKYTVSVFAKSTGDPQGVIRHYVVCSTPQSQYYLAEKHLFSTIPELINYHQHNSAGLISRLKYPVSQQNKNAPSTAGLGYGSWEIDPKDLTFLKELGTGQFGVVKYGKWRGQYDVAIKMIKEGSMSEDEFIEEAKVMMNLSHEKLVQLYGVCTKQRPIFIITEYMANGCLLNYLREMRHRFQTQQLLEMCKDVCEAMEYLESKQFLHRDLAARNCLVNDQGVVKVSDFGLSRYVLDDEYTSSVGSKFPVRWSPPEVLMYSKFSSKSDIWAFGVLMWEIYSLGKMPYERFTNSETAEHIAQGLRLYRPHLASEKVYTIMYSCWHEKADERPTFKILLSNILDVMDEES
pIC50: −log10 of the molar value.

Example cases with answers are listed next.
molecule	study target	pIC50
CN(C)C(=O)N1CC[C@@H]2[C@H]1CCCN2c1cnc(C(N)=O)c(Nc2cnn(C)c2)n1 (racemic)	BTK-WT (Homo sapiens, UniProt Q06187)	7.00 to 8.00
C[C@@H]1[C@H](NC(=O)c2ccc(C(C)(C)O)nc2)CCCN1c1cnc(C(N)=O)c(Nc2cnn(C)c2)n1	BTK-WT (Homo sapiens, UniProt Q06187)	≥ 8.00
C[C@@H]1[C@H](N2CCN(C)C2=O)CCCN1c1cnc(C(N)=O)c(Nc2ccc(C3(C)CCN(C4CC4)CC3)cc2)n1	BTK-WT (Homo sapiens, UniProt Q06187)	≥ 8.00
Cc1nc2cc(C(=O)N[C@@H]3CCCN(c4cnc(C(N)=O)c(Nc5cnn(C)c5)n4)[C@@H]3C)ccc2s1	BTK-WT (Homo sapiens, UniProt Q06187)	≥ 8.00

Q) Quick check: pIC50 on BTK-WT (Homo sapiens, UniProt Q06187), item C[C@@H]1[C@H](NC(=O)c2ccc(N(C)C)cn2)CCCN1c1cnc(C(N)=O)c(Nc2cnn(C)c2)n1 ?
A) ≥ 8.00

Q) Quick check: pIC50 on BTK-WT (Homo sapiens, UniProt Q06187), item C[C@@H]1[C@H](NC(=O)c2ccc(C3CC3)cc2C(F)(F)F)CCCN1c1cnc(C(N)=O)c(Nc2cnn(C)c2)n1 ?
A) 7.00 to 8.00

Q) Quick check: pIC50 on BTK-WT (Homo sapiens, UniProt Q06187), item C[C@@H]1[C@H](NC(=O)c2ccc(C(C)(C)C)cc2)CCCN1c1nnc(C(N)=O)c(Nc2cnn(C)c2)n1 ?
A) ≥ 8.00

Q) Quick check: pIC50 on BTK-WT (Homo sapiens, UniProt Q06187), item C[C@@H]1[C@H](NC(=O)c2ccc(C3CC3)cn2)CCCN1c1cnc(C(N)=O)c(Nc2cnn(C)c2)n1 ?
A) ≥ 8.00

Q) Quick check: pIC50 on BTK-WT (Homo sapiens, UniProt Q06187), item CN1CCN(C(=O)c2ccc(Nc3nc(N[C@H]4CC[C@@H](NC(=O)c5ccc(C6CC6)cc5F)CC4)cnc3C(N)=O)cc2)CC1 ?
A) 7.00 to 8.00

Q) Quick check: pIC50 on BTK-WT (Homo sapiens, UniProt Q06187), item C[C@@H]1[C@H](NC(=O)c2ccc(C3CC3)cc2)CCCN1c1cnc(C(N)=O)c(Nc2cnn(CC(C)(C)O)c2)n1 ?
A) ≥ 8.00

Q) Quick check: pIC50 on BTK-WT (Homo sapiens, UniProt Q06187), item C[C@@H]1[C@H](NC(=O)c2ccc(C3CC3)cc2Cl)CCCN1c1cnc(C(N)=O)c(Nc2ccc(N3CCN(C)CC3)cc2)n1 ?
A) ≥ 8.00

Q) Quick check: pIC50 on BTK-WT (Homo sapiens, UniProt Q06187), item C[C@@H]1[C@H](NC(=O)c2ccc(C(O)C(F)(F)F)cc2)CCCN1c1cnc(C(N)=O)c(Nc2cnn(C)c2)n1 (single isomer, unassigned) [Example D-249] ?
A) ≥ 8.00

Value source: patent US20210070748A1
